molecules and their reported IC50
Target: Casein kinase II subunit alpha' (Homo sapiens, UniProt P19784)
Sequence (P19784 whole entry): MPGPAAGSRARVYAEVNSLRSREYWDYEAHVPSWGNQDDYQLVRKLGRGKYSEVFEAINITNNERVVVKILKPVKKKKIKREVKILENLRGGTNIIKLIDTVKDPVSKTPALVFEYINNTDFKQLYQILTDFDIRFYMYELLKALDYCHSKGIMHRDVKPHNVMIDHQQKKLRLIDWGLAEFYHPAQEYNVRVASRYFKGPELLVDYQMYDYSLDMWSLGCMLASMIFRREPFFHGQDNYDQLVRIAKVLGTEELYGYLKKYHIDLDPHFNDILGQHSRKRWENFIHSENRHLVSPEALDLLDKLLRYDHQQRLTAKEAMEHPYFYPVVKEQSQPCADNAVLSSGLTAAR
Assay: Inhibition of GST-tagged full-length purified human CK2a2 using RRRDDDSDDD substrate incubated for 120 mins in presence of [33P]ATP by scintillation counting based biochemical assay

Sample records with IC50:
Nc1nn2c(=O)cc(-c3ccc4c(c3)OCO4)[nH]c2c1-c1ccccn1 = ≤ 10 µM
O=c1cc(-c2ccc3occc3c2)[nH]c2c(-c3ccccn3)c(O)nn12 = ≤ 10 µM
Nc1nn2c(=O)cc(-c3ccc4[nH]nnc4c3)[nH]c2c1-c1ccc(Cl)cc1 = ≤ 10 µM

*Q* State the recorded IC50 for this entry: CCCNC(=O)c1c(N)nn2c(=O)cc(-c3ccc4c(cnn4C)c3)[nH]c12
*A* ≤ 10 µM

*Q* State the recorded IC50 for this entry: Cc1nn2c(=O)cc(-c3ccc(C(F)(F)F)cc3)[nH]c2c1Cc1ccc(Cl)cc1
*A* ≥ 10 µM

*Q* State the recorded IC50 for this entry: Nc1nn2c(=O)cc(-c3ccc4[nH]nnc4c3)[nH]c2c1-c1ccccn1
*A* ≤ 10 µM

*Q* State the recorded IC50 for this entry: COc1ccc(-c2cc(=O)n3nc(O)c(-c4ccccn4)c3[nH]2)c(OC)c1
*A* ≥ 10 µM
